Test system: Plasmodium berghei
Assay: Luciferase/luciferin-expressing antifolate-resistant parasites were used to infect a culture of HepG2 cells that were pre-incubated with compounds. Infected hepatocytes emit light due to the luciferase reaction. Assay results are presented as the percent inhibition of light emission compared to control. […]
Format: functional
Conditions: sporozoite, PBLUC_HILL_SLOPE 2.1, PBLUC_R_SQUARED 0.668, read-out: LUCIFERASE INFECTION ASSAY - IC50
metric: pIC50
Numbers only, as −log10 of the molar value.

Lab note: Cc1ccc(-c2nn(-c3ccccc3)cc2/C=C/C(=O)NCc2ccc(-n3ccnc3)nc2)cc1 gave pIC50 of 5.29

====

Tested on: Plasmodium berghei
Experiment: Luciferase/luciferin-expressing antifolate-resistant parasites were used to infect a culture of HepG2 cells that were pre-incubated with compounds. Infected hepatocytes emit light due to the luciferase reaction. Assay results are presented as the percent inhibition of light emission compared to control. […]
Format: functional
Conditions: sporozoite, HEPG2TOX_HILL_SLOPE 8.77, HEPG2TOX_R_SQUARED 0.625, PBLUC_HILL_SLOPE 4.51, PBLUC_R_SQUARED 0.347, read-out: LUCIFERASE INFECTION ASSAY - IC50
metric: IC50 (µM)
Numbers only, in µM.

Entry Fc1ccc(N/N=C/Cc2nnnn2-c2ccccc2)cc1 , tested on Plasmodium berghei, has a reported IC50 of 7.9

====

Tested on: Plasmodium berghei
Experiment: Luciferase/luciferin-expressing antifolate-resistant parasites were used to infect a culture of HepG2 cells that were pre-incubated with compounds. Infected hepatocytes emit light due to the luciferase reaction. Assay results are presented as the percent inhibition of light emission compared to control. […]
Assay type: functional
Conditions: sporozoite, HEPG2TOX_HILL_SLOPE 1.88, HEPG2TOX_R_SQUARED 0.996, PBLUC_HILL_SLOPE 1.95, PBLUC_R_SQUARED 0.542, read-out: LUCIFERASE INFECTION ASSAY - IC50
metric: IC50 (nM)
Answers are plain numbers, in nM.

Lab note: Clc1ccc(-c2cn3c(-c4ccccc4)cnc3cn2)c(Cl)c1 gave IC50 of 1190

====

System: Plasmodium berghei
Experiment: Luciferase/luciferin-expressing antifolate-resistant parasites were used to infect a culture of HepG2 cells that were pre-incubated with compounds. Infected hepatocytes emit light due to the luciferase reaction. Assay results are presented as the percent inhibition of light emission compared to control. […]
Format: functional
Settings: sporozoite, HEPG2TOX_HILL_SLOPE 0.94, HEPG2TOX_R_SQUARED 0.4, PBLUC_HILL_SLOPE 1.67, PBLUC_R_SQUARED 0.0797, read-out: LUCIFERASE INFECTION ASSAY - IC50
metric: IC50
Please state the value followed by its unit.

Entry C=CCN(c1ccccc1)S(=O)(=O)c1cc(C(=O)NCC2(N3CCCCC3)CCCCC2)ccc1Cl , tested on Plasmodium berghei, has a reported IC50 of 5.22 µM

====

Test system: Plasmodium berghei
Experiment: Luciferase/luciferin-expressing antifolate-resistant parasites were used to infect a culture of HepG2 cells that were pre-incubated with compounds. Infected hepatocytes emit light due to the luciferase reaction. Assay results are presented as the percent inhibition of light emission compared to control. […]
Assay type: functional
Details: sporozoite, PBLUC_HILL_SLOPE 3.8, PBLUC_R_SQUARED 0.483, read-out: LUCIFERASE INFECTION ASSAY - IC50
metric: pIC50
Give bare numbers, as −log10 of the molar value.

Lab note: CN(c1ccccc1)c1ccc(/C=N/NC(=O)c2ccc3c(=O)n4c(nc3c2)CCCCC4)cc1 gave pIC50 of 5.20
